Numbers sourced from ChEMBL document CHEMBL1201862.

Molecular target: fMet-Leu-Phe receptor (Homo sapiens, UniProt P21462)
Sequence (P21462 whole entry): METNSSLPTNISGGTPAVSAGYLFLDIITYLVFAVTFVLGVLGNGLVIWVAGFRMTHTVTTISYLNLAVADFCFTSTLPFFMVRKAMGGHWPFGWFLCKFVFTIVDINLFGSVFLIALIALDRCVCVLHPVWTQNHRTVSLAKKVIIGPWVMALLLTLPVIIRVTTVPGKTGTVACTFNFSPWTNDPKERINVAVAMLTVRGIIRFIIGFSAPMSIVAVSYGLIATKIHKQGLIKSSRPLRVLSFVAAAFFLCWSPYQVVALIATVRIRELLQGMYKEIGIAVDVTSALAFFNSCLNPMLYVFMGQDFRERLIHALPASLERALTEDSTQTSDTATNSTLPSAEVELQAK
Experiment: formyl peptide receptor binders – dose response (AID 519)
Format: functional
Activity calls are given as the source filed them.
Possible outcomes: True (active), False (inactive)

compound	assigned label
O=C(C1=C(O)C(=O)N(CCN2CCOCC2)C1c1ccccc1)c1cccs1 (stereo not given)	False
O=C1CCCC(O)=C1C(C#Cc1ccccc1)C1=C(O)CCCC1=O	False
O=C1C(C23CC4CC(CC(C4)C2)C3)C(=O)N(c2ccccc2)N1c1ccccc1	True
COc1ccc(OC)c(C(=O)c2nc3c(n2O)CCCCC3)c1	False
O=C(Cn1c(=O)oc2ccccc21)N1CCN(c2ccccc2)CC1	False

* * *

Assay: blockers of CRF-binding protein–CRF-R2 complex – cell-based, uHTS hits, 384-well, dose response (AID 651639)
Assay type: functional, Homo sapiens
Settings: read-out: IC50_Mean
Calls of active or inactive are those of the source.
Possible outcomes: 1 = active, -1 = inactive

compound	assigned label
COC(=O)C(NC(=O)c1ccc(F)cc1)(Nc1ncc(S(=O)(=O)c2ccc([N+](=O)[O-])cc2)s1)C(F)(F)F (stereo unspecified)	1
O=C(Nc1cc(S(=O)(=O)N2CCCCC2)ccc1N1CCCCC1)C1CC1	-1
COc1ccc(C(=O)/C(C#N)=N/Nc2ccccc2[N+](=O)[O-])cc1	1
CC(=O)c1ccc(N2CCN(C(=O)c3cccc(Oc4ccccc4)c3)CC2)cc1	1
CCCCN(c1ccc(C(=O)OC)cc1)S(=O)(=O)c1ccccc1	-1
CCOC(=O)Nc1ccc(Oc2ccccc2)cc1	-1

* * *

Molecular target: Short transient receptor potential channel 4 (Mus musculus, UniProt Q9QUQ5)
Sequence (Q9QUQ5 whole entry): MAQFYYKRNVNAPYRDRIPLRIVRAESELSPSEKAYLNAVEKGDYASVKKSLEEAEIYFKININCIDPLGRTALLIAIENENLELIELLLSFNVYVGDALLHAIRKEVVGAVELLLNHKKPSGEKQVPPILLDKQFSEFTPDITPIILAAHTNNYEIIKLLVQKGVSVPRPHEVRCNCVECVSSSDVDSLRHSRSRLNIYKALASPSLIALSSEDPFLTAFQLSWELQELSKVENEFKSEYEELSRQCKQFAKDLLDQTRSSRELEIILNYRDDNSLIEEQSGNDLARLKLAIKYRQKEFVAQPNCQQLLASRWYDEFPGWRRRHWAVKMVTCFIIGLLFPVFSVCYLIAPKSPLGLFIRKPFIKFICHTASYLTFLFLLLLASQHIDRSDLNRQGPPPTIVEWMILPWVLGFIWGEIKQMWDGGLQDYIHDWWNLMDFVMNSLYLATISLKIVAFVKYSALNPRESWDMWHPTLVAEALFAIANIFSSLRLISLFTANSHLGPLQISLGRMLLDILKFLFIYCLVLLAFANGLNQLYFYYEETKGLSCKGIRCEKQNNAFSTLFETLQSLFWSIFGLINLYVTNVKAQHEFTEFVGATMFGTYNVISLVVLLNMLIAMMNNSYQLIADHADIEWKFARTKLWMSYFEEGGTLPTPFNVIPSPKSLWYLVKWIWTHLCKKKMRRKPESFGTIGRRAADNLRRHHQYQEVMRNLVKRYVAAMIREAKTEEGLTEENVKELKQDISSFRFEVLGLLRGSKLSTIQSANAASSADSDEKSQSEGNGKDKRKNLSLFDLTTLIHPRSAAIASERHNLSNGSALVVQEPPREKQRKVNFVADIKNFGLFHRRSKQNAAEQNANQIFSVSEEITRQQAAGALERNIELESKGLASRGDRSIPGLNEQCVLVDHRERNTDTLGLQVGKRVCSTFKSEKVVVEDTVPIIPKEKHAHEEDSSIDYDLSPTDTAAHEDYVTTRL
Test: block of DAMGO-driven TRPC4 calcium entry – cell-based, HEK293 TRPC4/mu-opioid, Fluo-4 calcium, dose response (AID 434942);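 also: potency of inhibitors blocking the TRPC4 calcium response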
Assay type: functional
Active and inactive are the calls of the source.
Each record here notes measured EC50.
readout: EC50

compound	assay result
c1ccc(-c2ccccc2OCCOCCN2CCCCC2)cc1	2.11 µM (active)
O=c1c2ccccc2nc(SCc2ccccc2)n1CC1CCCO1 (centres undefined)	3.35 µM (active)
Cc1cc(NCc2ccccc2)nc2ccccc12	3.35 µM (active)
Cn1c(=O)c2c(nc(SCc3cccnc3)n2Cc2ccc(F)cc2)n(C)c1=O	0.944 µM (active)
CCc1ccc(/C=C2/SC(=S)N(CCCC(=O)Nc3ccccc3C(=O)O)C2=O)cc1	4.22 µM (active)
CCCCn1c(NC(=O)c2ccccc2)nc2ccccc21	5.96 µM (active)
COc1nc(NC(=N)N)nc2ccc(C)cc12	5.31 µM (active)
CCCn1c(NCc2ccc(C)o2)nc2ccccc21	5.31 µM (active)
COc1cccc(C(CNC(=O)C(c2ccccc2)c2ccccc2)N(C)C)c1 (centres undefined)	0.944 µM (active)
